Reference for the values: patent US20180355043A1

- Tested on: T1, DR4G119: Human HLA-DRA1*01:02/DRB1*10:01 ECD with hemagglutinin peptide HA_304-318 (human)
- T1 construct: also called DRB1*10:01 HA
- Experiment summary: MSD ECL; antigen coated; protocol of Example 3
Measurement type: log10(ECL signal) (log10 of the value in ECL)

Binder: DR4B6 (antibody, V domains shown, also called L243 re-engineered as IgG2sigma) VH: QIQLVQSGPELKKPGETVKISCKASGFTFTNYGMNWVKQAPGKGLKWMGWINTYTREPTYADDFKGRFAFSLETSASTAYLQINNLKNEDTAKYFCARDITAVVPTGFDYWGQGTTLTVSS VL: DIQMTQSPASLSVSVGETVTITCRASENIYSNLAWYRQKQGKSPQLLVFAASNLADGVPSRFSGSGSGTQYSLKINSLQSEDFGDYYCQHFWTTPWAFGGGTNLEIK
log10(ECL signal): 5.76

Binder: DR4B4 (antibody, V domains shown, also called Lym-1 re-engineered as IgG2sigma) VH: QVQLKESGPGLVAPSQSLSITCTISGFSLTSYGVHWVRQPPGKGLEWLVVIWSDGSTTYNSALKSRLSISKDNSKSQVFLKMNSLQTDDTAIYYCASHYGSTLAFASWGHGTLVTVSA VL: DIQMTQSPASLSASVGETVTIICRASVNIYSYLAWYQQKQGKSPQLLVYNAKILAEGVPSRFSGSGSGTQFSLKINSLQPEDFGSYYCQHHYGPFTFGSGTKLEIK
log10(ECL signal): 5.76

Binder: DR4B5 (antibody, V domains shown, also called apolizumab (1D10) re-engineered as IgG2sigma) VH: QVQLQESGPGLVKPSETLSLTCTVSGFSLTNYGVHWVRQSPGKGLEWIGVKWSGGSTEYNAAFISRLTISKDTSKNQVSLKLNSLTAADTAVYYCARNDRYAMDYWGQGTLVTVSS VL: DIQMTQSPSSLSASVGDRVTITCRASENIYSYLAWYQQKPGKAPKLLVSNAKTLAEGVPSRFSGSGSGKQFTLTISSLQPEDFATYYCQHHYGNSYPFGQGTKLEIK
log10(ECL signal): 5.12

Binder: DR4B98 (antibody, human IgG2, kappa, V domains shown, also called VH DR4H50 / VL PH9L3) VH: QVQLVQSGAEVKKPGSSVKVSCKASGGTFKSYYIHWVRQAPGQGLEWMGGIAPIYGTAYYAQKFQGRVTITADESTSTAYMELSSLRSEDTAVYYCARDASWARAYGFDYWGQGTLVTVSS VL: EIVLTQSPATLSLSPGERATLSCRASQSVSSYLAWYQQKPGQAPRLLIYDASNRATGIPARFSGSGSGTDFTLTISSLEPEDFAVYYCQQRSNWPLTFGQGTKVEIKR
log10(ECL signal): 4.98

Binder: DR4B127 (antibody, human IgG2, kappa, V domains shown, also called VH DR4H7 / VL PH9L3) VH: QVQLVQSGAEVKKPGSSVKVSCKASGGTFKSYYIHWVRQAPGQGLEWMGGIRPISGNAEYAQKFQGRVTITADESTSTAYMELSSLRSEDTAVYYCARDASYYRNYGFDYWGQGTLVTVSS VL: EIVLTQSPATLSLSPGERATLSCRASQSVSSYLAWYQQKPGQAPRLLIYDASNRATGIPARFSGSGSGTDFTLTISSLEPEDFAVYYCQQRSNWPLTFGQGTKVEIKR
log10(ECL signal): 6.09
